# Tested on: CEM cells
# Experiment Summary: Mitochondrial COXII DNA and ribosomal DNA by real time PCR, CEM
# Type: cell-based, human
# Condition Notes: read-out: CC90 mtDNA; CEM cells, fourteen days

Compound	CC90
COc1nc(N)nc2c1ncn2[C@@H]1O[C@H](COP(=O)(N[C@@H](C)C(=O)OC(C)C)Oc2ccccc2)[C@@H](O)[C@@]1(C)F (stereo partly shown) [PSI-353661]	> 100 µM

====

# Target Desc: recombinant human ADAL1 (Homo sapiens)
# Sequence (Q6DHV7 whole entry): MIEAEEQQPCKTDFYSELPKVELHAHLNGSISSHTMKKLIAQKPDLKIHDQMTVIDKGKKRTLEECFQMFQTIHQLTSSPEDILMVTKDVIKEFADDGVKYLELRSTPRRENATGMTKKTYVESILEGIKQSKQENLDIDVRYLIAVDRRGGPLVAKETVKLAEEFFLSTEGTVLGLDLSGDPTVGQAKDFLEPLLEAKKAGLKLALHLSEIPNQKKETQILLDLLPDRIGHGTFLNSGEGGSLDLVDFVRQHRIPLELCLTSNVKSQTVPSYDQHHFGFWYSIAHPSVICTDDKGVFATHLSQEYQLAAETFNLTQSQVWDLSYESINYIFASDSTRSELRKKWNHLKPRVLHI
# Experiment Summary: ADAL1-mediated demethylation assay
# Assay type: biochemical
# Condition Notes: ADAL1, pH 6.7, 37°C

Compound	kcat [s⁻¹]
COc1nc(N)nc2c1ncn2[C@@H]1O[C@H](COP(=O)(O)O)[C@@H](O)[C@H]1O [O^6-meGMP, O^6-methyl GMP, reference compound]	2.33
CNc1ncnc2c1ncn2[C@@H]1O[C@H](COP(=O)(O)O)[C@@H](O)[C@H]1O [N^6-meAMP, N^6-methyl AMP, reference compound]	1.58
COc1nc(N)nc2c1ncn2[C@@H]1O[C@H](COP(=O)(O)O)[C@@H](O)[C@@]1(C)F	5.84
